targetEntity: T1, His-tagged human IGF1R protein (ACRO Biosystems Inc., Cat #: IGR-H5229) (human, UniProt P08069 31-932)
T1 construct: Bought protein; also called hIGF1R-His; not shown: His tag
T1 sequence (P08069 31-932): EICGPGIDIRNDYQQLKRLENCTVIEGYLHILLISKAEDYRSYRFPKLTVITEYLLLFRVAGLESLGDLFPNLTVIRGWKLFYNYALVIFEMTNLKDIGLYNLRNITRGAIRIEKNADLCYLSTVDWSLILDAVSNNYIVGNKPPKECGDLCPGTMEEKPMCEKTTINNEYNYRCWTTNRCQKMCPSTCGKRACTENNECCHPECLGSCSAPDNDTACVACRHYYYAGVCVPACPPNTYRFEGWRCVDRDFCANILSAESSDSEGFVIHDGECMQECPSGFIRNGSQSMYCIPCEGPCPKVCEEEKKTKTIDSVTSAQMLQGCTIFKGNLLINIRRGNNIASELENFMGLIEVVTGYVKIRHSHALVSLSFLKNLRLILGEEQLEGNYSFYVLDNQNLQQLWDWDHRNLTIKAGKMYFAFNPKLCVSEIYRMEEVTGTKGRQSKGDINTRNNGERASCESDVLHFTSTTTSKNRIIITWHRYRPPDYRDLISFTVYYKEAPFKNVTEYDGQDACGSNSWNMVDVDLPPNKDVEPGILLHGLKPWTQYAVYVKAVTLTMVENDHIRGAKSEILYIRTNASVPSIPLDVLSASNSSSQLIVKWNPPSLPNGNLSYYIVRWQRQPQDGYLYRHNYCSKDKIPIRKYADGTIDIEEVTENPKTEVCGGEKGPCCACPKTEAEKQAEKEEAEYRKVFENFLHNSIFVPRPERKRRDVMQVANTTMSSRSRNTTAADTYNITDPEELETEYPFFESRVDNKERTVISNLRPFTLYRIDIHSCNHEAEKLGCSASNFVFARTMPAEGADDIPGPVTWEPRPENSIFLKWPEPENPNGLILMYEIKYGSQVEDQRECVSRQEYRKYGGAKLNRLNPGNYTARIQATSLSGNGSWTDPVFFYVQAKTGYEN
experimentDescription: blocking ELISA on coated hIGF1R-His; blocked ligand: biotinylated human IGF-II
Reported Max inhibition (%) (10 µg/mL) values for the following binders.
Provide only the numeric value, understood in %.

Consider the following illustrative entries.
What does the data say about its Max inhibition (%) (10 µg/mL)? Entry: anti-IGF1R antibody 12D1 (antibody, human IgG1, V domains shown) VH: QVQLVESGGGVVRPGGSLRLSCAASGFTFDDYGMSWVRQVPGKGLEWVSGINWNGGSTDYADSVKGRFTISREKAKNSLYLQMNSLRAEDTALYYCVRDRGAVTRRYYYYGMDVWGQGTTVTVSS VL: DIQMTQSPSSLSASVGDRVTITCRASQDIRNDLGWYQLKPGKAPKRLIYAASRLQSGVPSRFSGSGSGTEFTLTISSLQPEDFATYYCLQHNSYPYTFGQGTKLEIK 88

What does the data say about its Max inhibition (%) (10 µg/mL)? Entry: anti-IGF1R antibody 10G1 (antibody, human IgG1, V domains shown) VH: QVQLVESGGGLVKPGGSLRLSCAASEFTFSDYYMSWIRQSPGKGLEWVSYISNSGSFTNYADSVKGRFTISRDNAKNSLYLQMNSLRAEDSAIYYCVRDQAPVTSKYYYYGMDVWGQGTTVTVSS VL: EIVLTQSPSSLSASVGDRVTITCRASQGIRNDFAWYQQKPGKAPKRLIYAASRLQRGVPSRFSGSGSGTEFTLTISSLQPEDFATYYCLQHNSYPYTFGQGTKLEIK 73

What does the data say about its Max inhibition (%) (10 µg/mL)? Entry: anti-IGF1R antibody 10D1 (antibody, human IgG1, V domains shown) VH: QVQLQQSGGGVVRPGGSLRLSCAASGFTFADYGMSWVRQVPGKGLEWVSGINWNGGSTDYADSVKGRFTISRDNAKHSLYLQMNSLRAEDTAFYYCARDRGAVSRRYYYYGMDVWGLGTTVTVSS VL: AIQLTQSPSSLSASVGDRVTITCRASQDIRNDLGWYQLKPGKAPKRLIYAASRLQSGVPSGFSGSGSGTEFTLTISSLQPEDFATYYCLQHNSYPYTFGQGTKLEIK 76

Others:
What does the data say about its Max inhibition (%) (10 µg/mL)? Entry: anti-IGF1R antibody 12A4 (antibody, V domains shown) VH: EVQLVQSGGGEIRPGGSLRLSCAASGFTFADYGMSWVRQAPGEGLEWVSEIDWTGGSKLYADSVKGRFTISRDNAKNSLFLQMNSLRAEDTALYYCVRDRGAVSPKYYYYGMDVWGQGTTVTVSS VL: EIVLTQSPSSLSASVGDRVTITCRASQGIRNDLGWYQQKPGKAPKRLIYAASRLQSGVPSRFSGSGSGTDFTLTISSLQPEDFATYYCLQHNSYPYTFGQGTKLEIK 81
